Data provenance is patent US11254661B2.

Reported pEC50, C. elegans Slo-1a (Caenorhabditis elegans).
pEC50: −log10 of the molar value.

O=C(N[C@H]1CCOc2ccccc21)c1cnc2c(NC3CCCCC3)cccc2c1N1CCOCC1 [Example 25]; 7.50 to 8.50
CC(C)c1c(C(=O)N[C@H]2CCOc3ccccc32)cnc2c(N3C[C@H](C)C[C@H](C)C3)cccc12 [Example 36]; 7.50 to 8.50
CN(C)c1c(C(=O)N[C@H]2CCOc3ccccc32)cnc2c(C3=CCCC3)cccc12 [Example 7]; 7.50 to 8.50

Next molecule, please.
Under C. elegans Slo-1a (Caenorhabditis elegans): report pEC50 of O=C(N[C@H]1CCOc2ccccc21)c1cnc2c(N3CCCCC3)cccc2c1N1CCOCC1 [Example 29] .
6.50 to 7.50

----------
Reported EC50, UniProt:Q95V25.

CN(C)c1c(C(=O)N[C@H]2CCc3ccccc32)cnc2c(N3CCCC3)c(F)ccc12; 31.6 to 316 nM
O=C(N[C@H]1CCc2ccccc21)c1cnc2c(N3CCCC3)c(F)ccc2c1N1CCOCC1; 3.16 to 31.6 nM
COCCCc1cccc2c(N(C)C)c(C(=O)N[C@H]3CCOc4ccccc43)cnc12; 316 to 5010 nM
C[C@@H]1CN(c2cccc3c(N4CCOCC4)c(C(=O)N[C@H]4CCOc5ccccc54)cnc23)C[C@H](C)O1; 31.6 to 316 nM
CC(=O)Nc1cccc2c(N3CCOCC3)c(C(=O)N[C@H]3CCOc4ccccc43)cnc12; 316 to 5010 nM
C[C@H]1COCCN1c1cccc2c(N3CCOCC3)c(C(=O)N[C@H]3CCOc4ccccc43)cnc12; 316 to 5010 nM
CN(C)c1c(C(=O)N[C@H]2CCOc3ccccc32)cnc2c(C3COC3)cccc12; 316 to 5010 nM

Provide measured EC50 value, entry: C[C@@H]1C[C@H](C)CN(c2cccc3c(N4CCOCC4)c(C(=O)N[C@H]4CCOc5ccccc54)cnc23)C1
< 3.16 nM

----------
Reported EC50 values for the following compounds.
Target: C. elegans Slo-1a (Caenorhabditis elegans)
Sequence (Q95V25 whole entry): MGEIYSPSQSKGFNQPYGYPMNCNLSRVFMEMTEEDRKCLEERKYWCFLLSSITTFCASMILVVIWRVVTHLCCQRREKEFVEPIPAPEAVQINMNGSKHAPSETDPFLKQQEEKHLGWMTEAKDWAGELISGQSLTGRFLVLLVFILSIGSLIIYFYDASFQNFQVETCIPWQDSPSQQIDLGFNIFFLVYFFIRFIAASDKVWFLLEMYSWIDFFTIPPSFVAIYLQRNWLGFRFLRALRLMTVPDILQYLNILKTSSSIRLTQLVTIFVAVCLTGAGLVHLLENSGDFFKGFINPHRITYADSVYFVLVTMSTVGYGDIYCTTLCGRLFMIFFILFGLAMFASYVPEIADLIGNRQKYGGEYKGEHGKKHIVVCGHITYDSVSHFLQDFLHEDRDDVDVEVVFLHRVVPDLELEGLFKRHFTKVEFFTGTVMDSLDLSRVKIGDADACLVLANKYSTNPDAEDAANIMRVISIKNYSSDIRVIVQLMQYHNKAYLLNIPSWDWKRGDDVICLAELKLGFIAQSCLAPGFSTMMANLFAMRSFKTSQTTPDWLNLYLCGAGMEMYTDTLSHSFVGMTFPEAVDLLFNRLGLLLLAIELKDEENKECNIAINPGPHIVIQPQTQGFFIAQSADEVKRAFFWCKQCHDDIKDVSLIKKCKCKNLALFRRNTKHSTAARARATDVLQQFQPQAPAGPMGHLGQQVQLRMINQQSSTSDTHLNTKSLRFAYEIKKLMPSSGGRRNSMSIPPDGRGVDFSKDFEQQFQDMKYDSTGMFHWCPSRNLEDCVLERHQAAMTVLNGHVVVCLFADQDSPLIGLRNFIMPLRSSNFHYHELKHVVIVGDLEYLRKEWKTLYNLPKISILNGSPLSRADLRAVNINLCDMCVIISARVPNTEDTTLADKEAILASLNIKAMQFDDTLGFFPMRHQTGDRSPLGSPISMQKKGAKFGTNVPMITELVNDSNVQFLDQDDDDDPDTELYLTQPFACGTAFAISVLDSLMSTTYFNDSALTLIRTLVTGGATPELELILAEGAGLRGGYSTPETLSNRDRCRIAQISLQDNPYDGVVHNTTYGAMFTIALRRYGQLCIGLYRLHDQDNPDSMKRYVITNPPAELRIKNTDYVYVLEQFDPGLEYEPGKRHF

CC(C)C#Cc1cccc2c(N(C)C)c(C(=O)N[C@H]3CCOc4ccccc43)cnc12; 31.6 to 316 nM

Under C. elegans Slo-1a (Caenorhabditis elegans): report EC50 of O=C(N[C@H]1CCc2ccccc21)c1cnc2c(N3CCOCC3)c(F)ccc2c1N1CCOCC1 .
31.6 to 316 nM

Under C. elegans Slo-1a (Caenorhabditis elegans): report EC50 of CC(C)CCc1cccc2c(N(C)C)c(C(=O)N[C@H]3CCOc4ccccc43)cnc12 .
3.16 to 31.6 nM

----------
Reported EC50 values for the following compounds.
Target: UniProt:Q95V25

Known results for compounds:
C[C@@H]1C[C@H](C)CN(c2cccc3c(N(C)C)c(C(=O)N[C@H]4CCOc5ccccc54)cnc23)C1; < 3.16 nM
CC1CC(C)CN(c2c(F)ccc3c(N4CCOCC4)c(C(=O)N[C@H]4CCc5ccccc54)cnc23)C1 (stereo partly shown); < 3.16 nM
CN(C)c1c(C(=O)N[C@H]2CCc3ccccc32)cnc2c(N3CCC(F)(F)CC3)c(F)ccc12; 3.16 to 31.6 nM
CN(C)c1c(C(=O)N[C@H]2CCOc3ccccc32)cnc2c(C3CN(C(=O)OC(C)(C)C)C3)cccc12; 316 to 5010 nM
CN(C)c1c(C(=O)N[C@H]2CCOc3ccccc32)cnc2c(C3CCCCC3)cccc12; 3.16 to 31.6 nM
CC(C)c1c(C(=O)N[C@H]2CCOc3ccccc32)cnc2c(N3CCCCC3)c(F)ccc12; 3.16 to 31.6 nM
O=C(N[C@H]1CCc2ccccc21)c1cnc2c(N3CCC(F)(F)CC3)c(F)ccc2c1N1CCOCC1; 3.16 to 31.6 nM
CC(C)c1cccc2c(N(C)C)c(C(=O)N[C@H]3CCOc4ccccc43)cnc12; 31.6 to 316 nM

Provide measured EC50 value, entry: CN(C)c1c(C(=O)N[C@H]2CCOc3ccccc32)cnc2c(C3=CCC(C)(C)CC3)cccc12
31.6 to 316 nM

Provide measured EC50 value, entry: CC(C)CC(C)c1cccc2c(N3CCOCC3)c(C(=O)N[C@H]3CCOc4ccccc43)cnc12 (stereo partly shown)
3.16 to 31.6 nM

Provide measured EC50 value, entry: CN(C)c1c(C(=O)N[C@H]2CCOc3ccccc32)cnc2c(C3=CCC(C(F)(F)F)CC3)cccc12 (stereo partly shown)
3.16 to 31.6 nM

Provide measured EC50 value, entry: CN(C)c1c(C(=O)N[C@H]2CCOc3ccccc32)cnc2c(C3=CCCCC3)cccc12
3.16 to 31.6 nM

Provide measured EC50 value, entry: CN(C)c1c(C(=O)N[C@H]2CCOc3ccccc32)cnc2c(C3=CCCCCC3)cccc12
3.16 to 31.6 nM

Provide measured EC50 value, entry: CN(C)c1c(C(=O)N[C@H]2CCOc3ccccc32)cnc2c(C3CCCCCC3)cccc12
3.16 to 31.6 nM

Provide measured EC50 value, entry: CN(C)c1c(C(=O)N[C@H]2CCOc3ccccc32)cnc2c(C3=CCOCC3)cccc12
31.6 to 316 nM

Provide measured EC50 value, entry: CC1CC(C)CN(c2c(F)ccc3c(N(C)C)c(C(=O)N[C@H]4CCc5ccccc54)cnc23)C1 (stereo partly shown)
3.16 to 31.6 nM

----------
Reported EC50, C. elegans Slo-1a (Caenorhabditis elegans, UniProt Q95V25).

Known results for molecules:
CN(C)c1c(C(=O)N[C@H]2CCOc3ccccc32)cnc2c(C3CCCC3)cccc12; < 0.00316 µM
CN(C)c1c(C(=O)N[C@H]2CCc3ccccc32)cnc2c(N3CCS(=O)(=O)CC3)c(F)ccc12; 0.316 to 5.01 µM
CC(C)(C)OC(=O)Nc1cccc2c(N3CCOCC3)c(C(=O)N[C@H]3CCOc4ccccc43)cnc12; 0.00316 to 0.0316 µM

Provide measured EC50 value, entry: O=C(N[C@H]1CCc2ccccc21)c1cnc2c(N3CCCCC3)c(F)ccc2c1N1CCOCC1
0.00316 to 0.0316 µM

Provide measured EC50 value, entry: CN(C)c1c(C(=O)N[C@H]2CCOc3ccccc32)cnc2c(C3CCOCC3)cccc12
0.0316 to 0.316 µM

Provide measured EC50 value, entry: CN(C)c1c(C(=O)N[C@H]2CCOc3ccccc32)cnc2c(C3=CCNCC3)cccc12
0.316 to 5.01 µM

Provide measured EC50 value, entry: CN(C)c1c(C(=O)N[C@H]2CCOc3ccccc32)cnc2c(C3CCC(C)(C)CC3)cccc12
0.0316 to 0.316 µM

Provide measured EC50 value, entry: O=C(N[C@H]1CCOc2ccccc21)c1cnc2c(N3CCOCC3)cccc2c1N1CCOCC1
0.316 to 5.01 µM

Provide measured EC50 value, entry: CN(C)c1c(C(=O)N[C@H]2CCc3ccccc32)cnc2c(N3CCOCC3)c(F)ccc12
0.316 to 5.01 µM

Provide measured EC50 value, entry: C=C(C)c1cccc2c(N(C)C)c(C(=O)N[C@H]3CCOc4ccccc43)cnc12
0.0316 to 0.316 µM
